Attribution: patent US11976056B2

# Test system: CYP1A2
# protocol-summary: CYP 450-1A2 induction assay in cryopreserved human hepatocytes
# Assay type: in vitro ADME
# experimental-setup: 10 μM test compound, 72 h, compared to vehicle control
property-name: induction of CYP1A2

{"molecule": "O=S(=O)(Nc1nc(F)c(OCCF)cc1F)c1c[nH]c2c(OC3CC3)c(Cl)ccc12 [Example I-2]", "assay-target": "CYP1A2", "induction of CYP1A2": "no CYP1A2 induction"}
{"molecule": "O=S(=O)(Nc1nc(F)c(OCCF)cc1F)c1c[nH]c2c(C3CC3)c(Cl)ccc12 [Example I-12]", "assay-target": "CYP1A2", "induction of CYP1A2": "no CYP1A2 induction"}
{"molecule": "O=S(=O)(Nc1nc(F)c(OCCF)cc1F)c1c[nH]c2c(C(F)F)c(Cl)ccc12 [Example I-3]", "assay-target": "CYP1A2", "induction of CYP1A2": "no CYP1A2 induction"}
{"molecule": "O=S(=O)(Nc1nc(F)c(OCCF)cc1F)c1c[nH]c2cc(Cl)ccc12 [Comparative Example 1, reference compound]", "assay-target": "CYP1A2", "induction of CYP1A2": "16 fold"}

API: the following record is the query input.
*Q* Give the measured induction of CYP1A2 of O=S(=O)(Nc1nc(F)c(OCCF)cc1F)c1c[nH]c2c(Cl)c(Cl)ccc12 [Example I-1] .
*A* no CYP1A2 induction

---

Provide the recorded Kb for the entries that follow.
# assay-target: GPR17 (Homo sapiens, UniProt Q13304)
# Sequence (Q13304 whole entry): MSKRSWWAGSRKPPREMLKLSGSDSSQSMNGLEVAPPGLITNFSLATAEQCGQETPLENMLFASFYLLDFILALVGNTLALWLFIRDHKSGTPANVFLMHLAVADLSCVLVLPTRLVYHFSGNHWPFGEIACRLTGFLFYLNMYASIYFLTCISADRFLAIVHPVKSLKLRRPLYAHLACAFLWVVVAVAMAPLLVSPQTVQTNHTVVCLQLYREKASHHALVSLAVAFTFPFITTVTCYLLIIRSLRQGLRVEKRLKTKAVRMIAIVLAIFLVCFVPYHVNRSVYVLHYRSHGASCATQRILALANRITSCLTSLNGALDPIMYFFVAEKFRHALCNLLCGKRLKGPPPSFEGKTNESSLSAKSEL
# protocol-summary: cAMP accumulation functional assay (HTRF, Schild analysis vs MDL29,951)
# Assay type: cell-based
# Set-up: host or cells: Flp-In T-REx CHO
# experimental-setup: CHO hGPR17, Schild analysis against MDL29,951, activity range; read-out: cAMP assay pA2 (converted)

Solved entries:
{"given-smiles": "O=S(=O)(Nc1nc(F)c(OCC(F)F)cc1F)c1c[nH]c2c(F)c(Cl)ccc12", "Kb": "≤ 3.16 nM"}
{"given-smiles": "COc1cc(OC(F)F)cnc1NS(=O)(=O)c1c[nH]c2c(Cl)c(Cl)ccc12", "Kb": "≤ 3.16 nM"}
{"given-smiles": "O=S(=O)(Nc1nc(F)c(OCCF)cc1F)c1c[nH]c2c(OC3CC3)c(Cl)ccc12", "Kb": "≤ 3.16 nM"}

Can you give me Kb for all of these, one by one?
1. COc1nc(NS(=O)(=O)c2c[nH]c3c(F)c(Cl)ccc23)c(F)cc1OCCOC(F)F
2. COc1nc(NS(=O)(=O)c2c[nH]c3c(Cl)c(C(F)F)ccc23)c(F)cc1OCC(F)F
3. O=S(=O)(Nc1nc(F)c(OCCF)cc1F)c1c[nH]c2c(F)c(Cl)ccc12
4. O=S(=O)(Nc1nc(F)c(OCCF)cc1F)c1c[nH]c2c(Cl)c(Cl)ccc12
5. COc1nc(NS(=O)(=O)c2c[nH]c3c(Cl)c(Cl)ccc23)c(F)cc1OCC(F)F

*A*
≤ 3.16 nM
≤ 3.16 nM
≤ 3.16 nM
≤ 3.16 nM
≤ 3.16 nM

---

# assay-target: GPR17 (Homo sapiens)
# protocol-summary: cAMP accumulation functional assay (HTRF, Schild analysis vs MDL29,951)
# Format: cell-based
# Design: host or cells: Flp-In T-REx CHO
# experimental-setup: CHO hGPR17, Schild analysis against MDL29,951, activity range; read-out: cAMP assay pA2 (converted)
# Procedure: Flp-In T-REx CHO cells stably expressing human GPR17 receptor (CHO hGPR17) from Evi Kostenis' lab (Bonn University, Germany) were cultured at 37° C. in a humidified atmosphere of 5% CO2. […] GPR17 activation can also recruit Gi-type G-protein signaling, resulting in a decrease of intracellular cyclic adenosine monophosphate (cAMP). Intracellular cAMP changes can be measured using the HTRF cAMP dynamic assay kit from CisBio (Codolet, France). […]
Provide the recorded Kb for the entries that follow.

Solved entries:
{"compound": "O=S(=O)(Nc1ncc(OCC(F)F)cc1F)c1c[nH]c2c(C(F)F)c(Cl)ccc12 [Example I-14]", "Kb": "3.16 to 31.6 nM"}
{"compound": "O=S(=O)(Nc1nc(F)c(OCCF)cc1F)c1c[nH]c2c(C(F)F)c(Cl)ccc12 [Example I-3]", "Kb": "≤ 3.16 nM"}
{"compound": "COc1nc(NS(=O)(=O)c2c[nH]c3c(C(F)F)c(Cl)ccc23)c(F)cc1OCC(F)F [Example I-15]", "Kb": "≤ 3.16 nM"}
{"compound": "O=S(=O)(Nc1ncc(OCC(F)F)cc1F)c1c[nH]c2c(F)c(C(F)F)ccc12 [Example I-19]", "Kb": "> 31.6 nM"}
{"compound": "COc1cc(OCC(F)F)cnc1NS(=O)(=O)c1c[nH]c2c(Cl)c(Cl)ccc12 [Example I-21]", "Kb": "3.16 to 31.6 nM"}
{"compound": "O=S(=O)(Nc1ncc(OCCF)cc1F)c1c[nH]c2c(F)c(C(F)F)ccc12 [Example I-8]", "Kb": "> 31.6 nM"}
{"compound": "COc1nc(NS(=O)(=O)c2c[nH]c3c(F)c(Cl)ccc23)c(F)cc1OCC(F)F [Example I-22]", "Kb": "≤ 3.16 nM"}

API: the following record is the query input.
*Q* Give the measured Kb of O=S(=O)(Nc1nc(F)c(OCCF)cc1F)c1c[nH]c2c(OC(F)(F)F)c(Cl)ccc12 [Example I-18] .
*A* 3.16 to 31.6 nM
